# Target or test system: T1, human DLL3 (Homo sapiens, UniProt Q9NYJ7)
# T1 construct: purchased ACRO DLL3-H52H4
# T1 sequence (Q9NYJ7 27-492 limits assumed): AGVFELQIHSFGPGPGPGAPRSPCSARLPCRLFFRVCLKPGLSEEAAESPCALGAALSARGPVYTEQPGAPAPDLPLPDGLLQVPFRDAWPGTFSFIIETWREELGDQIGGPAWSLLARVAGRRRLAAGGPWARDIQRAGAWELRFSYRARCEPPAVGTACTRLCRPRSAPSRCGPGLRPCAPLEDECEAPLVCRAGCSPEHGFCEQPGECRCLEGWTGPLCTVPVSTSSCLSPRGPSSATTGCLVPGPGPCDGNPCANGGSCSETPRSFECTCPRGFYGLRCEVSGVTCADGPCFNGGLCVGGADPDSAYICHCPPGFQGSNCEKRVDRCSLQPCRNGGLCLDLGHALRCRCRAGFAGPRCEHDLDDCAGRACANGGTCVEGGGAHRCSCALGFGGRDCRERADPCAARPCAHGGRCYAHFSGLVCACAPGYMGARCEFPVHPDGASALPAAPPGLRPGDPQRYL
# Assay text: Biacore antibody affinity assay, human DLL3
# Format: binding
Entries and their measured kd follow.
State the answer as a number, implicitly in s⁻¹.

{"Molecule": "hAb6L4H6: humanized antibody of mAb6: hAb6VH6 (SEQ ID NO: 37) + hAb6VL4 (SEQ ID NO: 48), constant regions SEQ ID NO: 28/29 (antibody, V domains shown, constant regions SEQ ID 28/29; hAb6 VH6; hAb6 VL4) VH: EVQLVQSGSELKKPGASVKVSCKASGYTFTDYYMNWVRQAPGQGLEWMGIINPYSGVTIYNHKFKGRFVLSVDKSSNTAYLQISSLKAEDTAVYYCARQDSLLDYAMDYWGQGTTVTVSS VL: DIQMTQSPSSLSASVGDRVTITCHASQGISGNMGWLQQKPGKAPKGLIYHGANLEDGVPSRFSGSGSGADYTLTISSLQPEDFADYYCVQYAQFPYTFGGGTKVEIK", "kd (s⁻¹)": 0.000811}
{"Molecule": "hAb6L4H4: humanized antibody of mAb6: hAb6VH4 (SEQ ID NO: 35) + hAb6VL4 (SEQ ID NO: 48), constant regions SEQ ID NO: 28/29 (antibody, V domains shown, constant regions SEQ ID 28/29; hAb6 VH4; hAb6 VL4) VH: EVQLVQSGAEVKKPGASVKVSCKASGYTFTDYYMNWVRQAPGKRLEWMGIINPYSGVTIYNHKFKGRVTLTVDKSANTAYMELSSLRSEDTAVYYCARQDSLLDYAMDYWGQGTTVTVSS VL: DIQMTQSPSSLSASVGDRVTITCHASQGISGNMGWLQQKPGKAPKGLIYHGANLEDGVPSRFSGSGSGADYTLTISSLQPEDFADYYCVQYAQFPYTFGGGTKVEIK", "kd (s⁻¹)": 0.00108}
{"Molecule": "hAb6L3H2: humanized antibody of mAb6: hAb6VH2 (SEQ ID NO: 33) + hAb6VL3 (SEQ ID NO: 47), constant regions SEQ ID NO: 28/29 (antibody, V domains shown, constant regions SEQ ID 28/29; hAb6 VH2; hAb6 VL3) VH: EVQLVQSGAEVKKPGASVKVSCKASGYTFTDYYMNWVRQAPGQRLEWMGIINPYSGVTIYNHKFKGRVTLTVDKSANTAYMELSSLRSEDTAVYYCARQDSLLDYAMDYWGQGTTVTVSS VL: DIQMTQSPSSLSASVGDRVTITCHASQGISGNMGWLQQKPGKSFKGLIYHGANLEDGVPSRFSGSGSGADYTLTISSLQPEDFATYYCVQYAQFPYTFGGGTKVEIK", "kd (s⁻¹)": 0.00114}

# input for lookup
Per the records, this molecule ( hAb6L4H13: humanized antibody of mAb6: hAb6VH13 (SEQ ID NO: 44) + hAb6VL4 (SEQ ID NO: 48), constant regions SEQ ID NO: 28/29 (antibody, V domains shown, constant regions SEQ ID 28/29; hAb6VH13; hAb6 VL4) VH: EVQLVQSGSELKKPGASVKVSCKASGYTFTDYYMNWVKQAPGQGLEWMGIINPYSGVTIYNHKFKGRFALSVDKSSNTAYLQISSLKAEDTAVYYCARQDSLLDYAMDYWGQGTTVTVSS VL: DIQMTQSPSSLSASVGDRVTITCHASQGISGNMGWLQQKPGKAPKGLIYHGANLEDGVPSRFSGSGSGADYTLTISSLQPEDFADYYCVQYAQFPYTFGGGTKVEIK ) has kd equal to 0.000695
